assay: forskolin-driven CRE-LacZ activity in PC12 – cell-based, CRE-LacZ reporter, forskolin-stimulated, primary screen (AID 1146); conditions: luminescence, 4.5 h, higher = more signal, called active from +8 up or from −8 down;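 also: PC12 cells with 6xCRE LacZ reporter stimulated by forskolin 10 µM; beta-galactosidase reporter signal reflecting CREB driven transcription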
quantityMeasured: z-score
Format: numeric value only, no unit, no commentary.

These solved cases illustrate the format of a correct answer.
O=C(NCC(F)(F)F)[C@@H]1c2ccccc2C(=O)N(Cc2ccccc2)[C@H]1c1ccc(CO)cc1    -0.461
C=CCNC(=O)[C@H]1[C@@H]2C(=O)O[C@@H](c3ccccc3)[C@@H](c3ccccc3)N2[C@@H](c2ccc(O)cc2)[C@]12C(=O)Nc1ccc(C#Cc3ccc(OC)cc3)cc12    0.468

Reported z-score, compound `COc1ccccc1CN1C(=O)c2ccccc2[C@](Cc2ccccc2I)(C(=O)NCc2ccccc2)[C@@H]1c1ccc(CO)cc1` : ____ -0.0005
